Hello, the source for this data is patent US20220313698A1, in case you need it.

measurement_target: CFTR-mediated chloride transport (Homo sapiens, UniProt P13569)
test_details: Corrector Assay A - membrane potential dye assay (enteroid cells)
assay_conditions: read-out: Corrector Assay A EC50; human intestinal enteroid cells, 18-24 h incubation; acute 10 μM forskolin + 300 nM ivacaftor
pEC50: −log10 of the molar value.
recorded_endpoint: pEC50

[[record]]
compound = "CC(C)(C)c1ccc2c(n1)N1C[C@@H](CC[C@H](c3cccc(CCN)n3)Nc3cccc(n3)S(=O)(=O)NC2=O)CC1(C)C"
measurement_target = "CFTR-mediated chloride transport (Homo sapiens, UniProt P13569)"
measured_result = "> 6.00"

[[record]]
compound = "CC1(C)C[C@@H]2CC[C@H](c3ccccn3)Nc3cccc(n3)S(=O)(=O)NC(=O)c3ccc(-c4cccc(OCC5CCC5)n4)nc3N1C2"
measurement_target = "CFTR-mediated chloride transport (Homo sapiens, UniProt P13569)"
measured_result = "> 6.00"

[[record]]
compound = "CC(C)(C)c1ccc2c(n1)N1C[C@@H](CC[C@H](c3cccc(Br)n3)Nc3cccc(n3)S(=O)(=O)NC2=O)CC1(C)C (single isomer, unassigned)"
measurement_target = "CFTR-mediated chloride transport (Homo sapiens, UniProt P13569)"
measured_result = "> 6.00"

[[record]]
compound = "CC1(C)C[C@@H]2CC[C@H](c3ccccn3)Nc3cccc(n3)S(=O)(=O)NC(=O)c3ccc(-c4cccc(OCCC5CC5)n4)nc3N1C2"
measurement_target = "CFTR-mediated chloride transport (Homo sapiens, UniProt P13569)"
measured_result = "> 6.00"

[[record]]
compound = "CC(C)(C)c1ccc2c(n1)N1C[C@@H](CCC(c3ccc(-c4cn[nH]c4)cn3)Nc3cccc(n3)S(=O)(=O)NC2=O)CC1(C)C (stereo partly shown) [Compound 136]"
measurement_target = "CFTR-mediated chloride transport (Homo sapiens, UniProt P13569)"
measured_result = "> 6.00"


Next up:
# input compound: CC(C)(C)c1ncc2c(n1)N1C[C@@H](CCCNc3cccc(n3)S(=O)(=O)NC2=O)CC1(C)C ; wanted: its pEC50
5.52 to 6.00

* * *

measurement_target: CFTR-mediated chloride transport (Homo sapiens)
test_details: Corrector Assay A - membrane potential dye assay (enteroid cells)
assay_conditions: % of chloride transport of triple combination control (1 μM (14S)-dispiro macrocycle + 3 μM tezacaftor + 300 nM ivacaftor)
recorded_endpoint: Corrector Assay A % activity

[[record]]
compound = "CC(C)(C)c1cccc(C2CC[C@@H]3CN(c4nc(C(C)(C)C)ccc4C(=O)NS(=O)(=O)c4cccc(n4)N2)C(C)(C)C3)c1 (single isomer, unassigned) [Compound 41]"
measured_result = "+++ (+++ is >60%)"

[[record]]
compound = "CC(C)(C)c1ccc2c(n1)N1C[C@@H](CC[C@@H](c3cccc(C4CCNCC4)n3)Nc3cccc(n3)S(=O)(=O)NC2=O)CC1(C)C"
measured_result = "+ (+ is <30%)"

[[record]]
compound = "CC(C)(C)c1ccc2c(n1)N1C[C@@H](CCC(C3CCN(C(=O)OCc4ccccc4)CC3)Nc3cccc(n3)S(=O)(=O)NC2=O)CC1(C)C (single isomer, unassigned) [Compound 254]"
measured_result = "+ (+ is <30%)"

[[record]]
compound = "CC(C)(O)/C=C/CC1CC[C@@H]2CN(c3nc(C(C)(C)C)ccc3C(=O)NS(=O)(=O)c3cccc(n3)N1)C(C)(C)C2 (single isomer, unassigned) [Compound 23]"
measured_result = "+++ (+++ is >60%)"

